# target: full-length human CD137-Fc fusion protein (human)
# Sequence (chain, as listed by the source limits assumed): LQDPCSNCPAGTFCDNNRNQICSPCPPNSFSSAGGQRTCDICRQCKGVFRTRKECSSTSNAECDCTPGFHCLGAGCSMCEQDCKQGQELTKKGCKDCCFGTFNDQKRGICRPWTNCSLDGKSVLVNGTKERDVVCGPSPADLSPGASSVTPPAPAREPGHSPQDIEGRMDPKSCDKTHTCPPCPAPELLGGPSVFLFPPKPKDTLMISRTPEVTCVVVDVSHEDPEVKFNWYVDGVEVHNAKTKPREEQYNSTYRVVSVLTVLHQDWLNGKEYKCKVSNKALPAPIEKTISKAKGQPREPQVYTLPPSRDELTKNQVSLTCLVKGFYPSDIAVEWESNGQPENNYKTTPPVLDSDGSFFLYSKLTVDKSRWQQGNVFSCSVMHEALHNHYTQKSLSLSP
# protocol-text: ELISA, coated CD137-Fc protein 2 µg/mL, antibody 10 or 5 µg/mL; absorbance 620 nm divided by that of the uncoated well
measured-metric: Ratio with respect to Non-Coating

Challenge: Item R4 (antibody, V domains shown, Naive library clone; Fab on phage in the phage ELISA) VH: EVQLVQSGAEVKKPGASVKVSCKASGYTFSGYYMHWVRQAPGQGLEWMGWINPNSGDTNYAQNFQGRVTMTRDTSISTAYMELSRLRSDDTAVYYCARDGTGYSSSPDYWGQGTPVTVSS VL: QSALTQPASVSGSPGQSITISCTGTSSDVGGYNYVSWYQQHPGKAPKLMIYDVSNRPSGVSNRFSGSKSGNTASLTISGLQAEDEADYYCSSYTSSSTRWVFGGGTKLTVL has what recorded Ratio with respect to Non-Coating?
Response given: 37.1

Challenge: Item R3 (antibody, V domains shown, Naive library clone; Fab on phage in the phage ELISA) VH: EVQLVQSGAEVKKPGASVKVSCKASGYTFTSYYTHWVRQAPGQGLEWMGIINPSGGSTSYAQKFQGRVTMTRDTSTSTVYMELSSLRSEDTAVYYCARGAPEYSSSSDYWGQGTMVTVSS VL: QSALTQPASVSGSPGQSITISCTGTSSDVGGYNFVSWYQQHPGKAPKLMIYDVSKRPSGVSTRFSGSKSGNTASLTISGLQAEDEADYYCNSYTTSSTRWMFGGGTKVTVL has what recorded Ratio with respect to Non-Coating?
Response given: 33.7

Challenge: Item B (antibody, human IgG1, kappa, V domains shown, also called Control B) VH: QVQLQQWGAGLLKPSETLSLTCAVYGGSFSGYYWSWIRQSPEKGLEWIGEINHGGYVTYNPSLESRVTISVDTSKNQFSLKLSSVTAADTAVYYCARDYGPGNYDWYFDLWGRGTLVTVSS VL: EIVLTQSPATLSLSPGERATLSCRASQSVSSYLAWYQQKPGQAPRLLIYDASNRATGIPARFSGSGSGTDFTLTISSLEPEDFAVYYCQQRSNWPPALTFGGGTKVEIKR has what recorded Ratio with respect to Non-Coating?
Response given: 54.6
